- assay.target: SARS-CoV-2 RBD construct consisting of residues Pro330-Gly526 fused to Venus YFP (RBD-vYFP) (SARS-CoV-2, UniProt P0DTC2)

{"binder": "Sb#30 (VHH) VHH: QVQLVESGGGLVQAGGSLRLSCAASGFPVTMAWMWWYRQAPGKEREWVAAIRSEGVRTYYADSVKGRFTISRDNAKNTVYLQMNSLKPEDTAVYYCNVKDYGQAHAYYDYWGQGTQVTVS", "binding result": "binds"}
{"binder": "Sb#32 (VHH) VHH: QVQLDESGGGLVQAGGSLRLSCAASGFPVYHAWMEWYRQAPGKEREWVAAITSSGRHTYYADSVKGRFTISRDNAKNTVYLQMNSLKPEDTAVYYCNVKDAGRVYNSYDYWGQGTQVTVS", "binding result": "binds"}
{"binder": "Sb#8 (VHH) VHH: QVQLVESGGGLVQAGGSLRLSCAASGFPVNAGNMHWYRQAPGKEREWVAAIQSYGRTTYYADSVKGRFTISRDNAKNTVYLQMNSLKPEDTAVYYCRVFVGMHYFGQGTQVTVS", "binding result": "binds"}
